Test system: T-T (Esophageal Squamous Cell Carcinoma);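 also: after 72 h of two-drug dosing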
PROTOCOL_DESCRIPTION: Bliss excess, mean over the matrix (fraction); higher = more synergy
VALUE_TYPE: Bliss excess

Consider the compound CC1(C)CCC(CN2CCN(c3ccc(C(=O)NS(=O)(=O)c4ccc(NCC5CCOCC5)c([N+](=O)[O-])c4)c(Oc4cnc5[nH]ccc5c4)c3)CC2)=C(c2ccc(Cl)cc2)C1 [Venetoclax] + C1CN(CCC1(C(=O)N[C@@H](CCO)C2=CC=C(C=C2)Cl)N)C3=NC=NC4=C3C=CN4 [Capivasertib] (first compound max 1 µM, 7x7, partner max 3 µM) . State its measured Bliss excess.
0.0155

Give Bliss excess for Cc1cc2ncnn2cc1Nc1ncc2c(n1)n(C1CCOCC1)c(=O)n2C [AZD7648] + O=C(c1cc(Cc2n[nH]c(=O)c3ccccc23)ccc1F)N1CCN(C(=O)C2CC2)CC1 [Olaparib] (first compound max 10 µM, 7x7, partner max 10 µM)
-0.0642

Please list Bliss excess recorded for the compound C[C@@H](c1ccc2nccn2c1)n1nnc2ncc(-c3cnn(C)c3)nc21 [Savolitinib] + Cc1c2c(nn1C)CSCc1cc(n(C)n1)CSc1cc(c3ccccc3c1)OCCCc1c(C(=O)O)n(C)c3c-2c(Cl)ccc13 [AZD5991] (first compound max 1 µM, 7x7, partner max 1 µM)
-0.0291

Return reported Bliss excess. Input compound: COc1cccc(OCCCN)c1-c1cc(Nc2cnc(C#N)cn2)n[nH]1 [Prexasertib] + CCc1c2c(nc3ccc(O)cc13)-c1cc3c(c(=O)n1C2)COC(=O)[C@]3(O)CC [SN-38] (first compound max 1 µM, 7x7, partner max 0.3 µM)
0.12

Provide Bliss excess value for the following compound: COc1nnc2ccc(N3CCC(c4ccc(OCCN5CCN(C)C(=O)[C@H]5C)cc4)CC3)nn12 [AZD5153] + CC1(C)CCC(CN2CCN(c3ccc(C(=O)NS(=O)(=O)c4ccc(NCC5CCOCC5)c([N+](=O)[O-])c4)c(Oc4cnc5[nH]ccc5c4)c3)CC2)=C(c2ccc(Cl)cc2)C1 [Venetoclax] (first compound max 1 µM, 7x7, partner max 1 µM)
-0.0319

Return reported Bliss excess. Input compound: CC1(C)CCC(CN2CCN(c3ccc(C(=O)NS(=O)(=O)c4ccc(NCC5CCOCC5)c([N+](=O)[O-])c4)c(Oc4cnc5[nH]ccc5c4)c3)CC2)=C(c2ccc(Cl)cc2)C1 [Venetoclax] + Cc1cc2ncnn2cc1Nc1ncc2c(n1)n(C1CCOCC1)c(=O)n2C [AZD7648] (first compound max 1 µM, 7x7, partner max 10 µM)
0.0109

Supply reported Bliss excess belonging to this compound: C[C@@H]1COCCN1c1cc(C2([S@](C)(=N)=O)CC2)nc(-c2ccnc3[nH]ccc23)n1 [AZD6738] + C1CC(C1)(C(=O)[O-])C(=O)[O-].N.N.[Pt+2] [Carboplatin] (first compound max 10 µM, 7x7, partner max 10 µM)
-0.0661

Give the measured Bliss excess for O=C(c1cc(Cc2n[nH]c(=O)c3ccccc23)ccc1F)N1CCN(C(=O)C2CC2)CC1 [Olaparib] + CC1(C)CCC(CN2CCN(c3ccc(C(=O)NS(=O)(=O)c4ccc(NCC5CCOCC5)c([N+](=O)[O-])c4)c(Oc4cnc5[nH]ccc5c4)c3)CC2)=C(c2ccc(Cl)cc2)C1 [Venetoclax] (first compound max 10 µM, 7x7, partner max 1 µM)
-0.0375

Recall and state the measured Bliss excess for C=CCn1c(=O)c2cnc(Nc3ccc(N4CCN(C)CC4)cc3)nc2n1-c1cccc(C(C)(C)O)n1 [AZD1775] + O=C(c1cc(Cc2n[nH]c(=O)c3ccccc23)ccc1F)N1CCN(C(=O)C2CC2)CC1 [Olaparib] (first compound max 1 µM, partner max 10 µM) .
-0.002

The reported numbers originate from the supplement of paper PMC11061612.
